The values you see were collected from ChEMBL document CHEMBL4765284.

# run_description: Metabolic stability in human liver microsomes assessed as intrinsic clearance at 1 uM measured upto 60 mins by LC-MS analysis
# Type: ADME, Microsome
# cond: read-out: CLH
# label = true (1) if microsomal CLint at 1 µM < 100 µL/min/mg else false (0)

N#Cc1cnc(NC(=O)N2CCN(c3ccc(Cl)c(Cl)c3)CC2)s1	true (1)
Cc1cnc2[nH]c(N3CCN(c4ccc(C)c(Cl)c4)CC3)nc2c1	false (0)
Cc1ccc(OCCCc2nc3cc(Cl)cnc3[nH]2)cc1Cl	false (0)
O=C(Nc1ncc(Cl)s1)N1CCN(c2cnc(Cl)c(Cl)c2)CC1	true (1)

Let's switch to this compound now.
Q: Say whether its microsomal CLint at 1 µM is strictly beneath 100 µL/min/mg. Entry: "Cc1cnc(NC(=O)CCCOc2ccc(Cl)c(C)c2)s1"
Ans: false (0)
